# Assay comment: NCI Yeast Anticancer Drug Screen. Data for the mgt1 strain (AID 153)
# Setup conditions: S. cerevisiae mgt1 mutant growth inhibition; at 33.0 µM; hits give high values
The panel holds about 79,000 compounds, 15% with a hit somewhere; the sample as a whole holds those more often.
Binary call on growth inhibition: Met from 70% upward, Not met beneath that.

1. S=c1[nH]nc(Nc2ccc(Cl)cc2)s1; Not met
2. COC(=O)C1=C(C)NC(C)=C(C(=O)OCCCN2CCC(c3ccccc3)(c3ccccc3)CC2)C1c1cccc([N+](=O)[O-])c1 (centres undefined); Met
3. c1ccc2c(c1)sc1nc3ccncc3nc12; Not met
4. O=CC=C(c1ccccc1)c1ccccc1; Not met
5. N#CSc1ccc(S(N)(=O)=O)cc1; Not met
6. Cc1cc(I)ccc1N; Met
7. CC(C)NC(=O)OCc1c(COC(=O)NC(C)C)c(-c2ccc(Cl)c(Cl)c2)n2c1CCC2; Not met
8. O=C(/C=C/c1cccc(Br)c1)c1cccs1; Met
9. CC(=O)SCCC[Si](C)(C)CCCSC(C)=O; Not met
10. O=C1NC(=O)C2C3C=CC(C3)C12 (centres undefined); Met
11. C/C(=N\NC(=S)N1CCCCC1)c1cccc(C)n1; Met
12. O=[n+]1c2ccc(Cl)cc2n([O-])c2ccc(Cl)cc21; Not met
13. CCOC(=O)C1=C(C(=O)c2ccccc2)C(c2ccccc2[N+](=O)[O-])C(C(=O)c2ccccc2)=C(C(=O)OCC)N1; Not met
14. CN(CCc1ccccn1)c1ccc2c(c1)Cc1ccccc1-2; Not met
15. CC/C(=C(\c1ccccc1)c1ccc(OCCN(C)C)cc1)c1ccccc1; Met
16. c1ccc2c(c1)Oc1cccc3cccc-2c13; Not met
17. CC(=O)OCCOCNC(=S)N/N=C(\C)c1cnccn1; Not met
18. CCc1ncnc2cc(OCC3CO3)c(OC)cc12 (centres undefined); Not met
19. CNC(=O)OCc1c(COC(=O)NC)c(-c2ccc(-c3ccccc3)cc2)n(C)c1C; Not met
20. CCCCOC(=O)N[C@H]1CCc2cc(OC)c(OC)c(OC)c2-c2ccc(SC)c(=O)cc21; Not met
21. OCC(Cn1cncn1)(c1ccc(F)cc1F)n1cncn1 (centres undefined); Not met
22. O=C(O)C1OC1(c1cccc(Cl)c1)c1ccccc1Cl (centres undefined); Not met
23. CC1(C)C(=O)OC(n2cc(F)c(=O)[nH]c2=O)C1=O (centres undefined); Not met
24. O=C1C(=O)c2ccccc2C=C1[N+](=O)[O-]; Not met

====

# Assay comment: NCI Yeast Anticancer Drug Screen. Data for the bub3 strain (AID 167)
# Setup conditions: S. cerevisiae bub3 mutant strain, at 5.0 µM (retest, dose inferred, filed as 0.5), hits give high values
About 79,000 compounds went through this panel and 15% of them were active in at least one assay; those are over-represented in the sample as a whole. Activity calls are given as the source filed them. Cut-off read from the data, not from the text of the source: active = growth inhibition above about 70%; inactive = the rest.
Catalogue of molecules with associated growth inhibition
Metric: growth inhibition

1) CCCCCCCCCCCC(=O)N(C)C; -4% (inactive)
2) Cc1ccc(S(=O)(=O)NCCSS(=O)(=O)c2ccc(C)cc2)cc1; 30% (inactive)
3) [O-][n+]1c2ccc(O)cc2nc2ccc(Cl)cc21; -7% (inactive)
4) Cc1ccc(CCC2=CCCc3c2ccc2ccccc32)cc1; 63% (inactive)
5) CCCCCCCCCCC1CCC(=O)O1 (stereo unspecified); 3% (inactive)
6) CC(=O)Oc1cc(-c2cc(OC(C)=O)c(OC(C)=O)c3ccccc23)c2ccccc2c1OC(C)=O; 17% (inactive)
7) COC(=O)C1=C(C)NC(C)=C(C(=O)OC)C1c1cccc(/[N+]([O-])=C/c2ccccc2)c1; 43% (inactive)
8) CC1=NN(c2cccc(Cl)c2)C(=O)C1; 27% (inactive)
9) O=C(/C=C\c1ccc(Cl)cc1Cl)c1cccs1; 30% (inactive)
10) COc1ccc(NC(=S)N/N=C(\c2ccccc2)c2ccccn2)cc1; 35% (inactive)
11) COc1cc(C2C3=C(COC3=O)Oc3cc4c(cc32)OCO4)ccc1O (stereo unspecified); -4% (inactive)

====

# Assay comment: NCI Yeast Anticancer Drug Screen. Data for the mlh1 strain (AID 171);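 note: 0% = growth of vehicle-treated control cultures of the same strain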
# Setup conditions: S. cerevisiae mlh1 strain growth inhibition; at 100.0 µM; hits give high values
Compounds without any hit were thinned out: in the full panel of roughly 79,000, 15% have a hit.
Catalogue of compounds with associated growth inhibition
Metric: growth inhibition (%)

1. CC(CC(C)(C)[N+](C)(C)C)[N+](C)(C)C (centres undefined); 0
2. C[Si](C)(C)CNC(=O)OCc1ccccc1; 38
3. O=Nc1cccnc1N=O; 99
4. Cc1ccc(Cl)c2[nH]c(-c3ccccc3)cc(=O)c12; 0
5. S=C(N/N=C/c1ccccn1)Nc1ccc(Cl)cc1; 51
6. Cc1c(C2=C(Br)C(=O)N(C)C2=O)c(=O)n(C)c(=O)n1C; 97
7. CCOc1ccc2c(c1)c(CC(=O)O)cn2C; 75
8. OC(c1ccc(F)cc1)(c1ccc(F)cc1)C1CC1; 92
9. C/C(=N\O)C1CC2C=C(C#N)C1N(Cc1ccccc1)C2 (centres undefined); 0
10. Nc1ccc2c(c1)C(=O)c1cccc(N)c1C2=O; 85
11. COc1ccc(/C=C/C(=O)C(C)(C)Br)cc1; 94
12. CCC/C(Cl)=N\OC(=O)Nc1ccc(Br)cc1; 98
13. O=C(Nc1ccccc1)OCCc1ccc(Cl)c(Cl)c1; 46
14. O=C1CSC(/C=C/c2ccccc2)N1c1ccc(-c2ccc(-n3c(-c4ccccc4)nc4ccccc4c3=O)cc2)cc1 (centres undefined); 77
15. O=C1c2ccccc2-c2nc3ccccc3nc21; 61
16. c1ccc(-c2nc3cccnc3s2)cc1; 15
17. CCc1ncnc2cc(OCC3CO3)c(OC)cc12 (centres undefined); 61
18. Nc1ncncc1C(C1=C(O)COC1=O)C1=C(O)COC1=O; 0
19. CNC(=O)OCc1c(COC(=O)NC)c(-c2ccc(-c3ccccc3)cc2)n(C)c1C; -1
20. Cc1c(C(Cc2ccccc2N(C)C(=O)/C=C\C(=O)O)c2c[nH]c3ccccc23)c2ccccc2n1C (centres undefined); 62
21. C[C@H](CCC(=O)NN)[C@H]1CC[C@H]2[C@@H]3CC[C@@H]4C[C@H](O)CC[C@]4(C)[C@H]3CC[C@]12C; 4
22. S=C(S)NN1CCOCC1; 72
23. COC(=O)c1ccc([N+](=O)[O-])c(O)c1; 99
24. CCCN(CCC)CC(O)c1cc(-c2ccc(Cl)cc2)nc2c(C)c(Cl)ccc12 (centres undefined); 95

====

Catalogue of molecules with associated growth inhibition
# Assay comment: NCI Yeast Anticancer Drug Screen. Data for the rad14 strain (AID 159);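 note: 0% = growth of vehicle-treated control cultures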
# Setup conditions: S. cerevisiae rad14 strain growth inhibition; at 11.0 µM; hits give high values
About 79,000 compounds went through this panel and 15% of them were active in at least one assay; those are over-represented in the sample as a whole.
Metric: growth inhibition (%)

1) Cc1ccc(S(=O)(=O)Oc2cc(Cl)c(Cl)cc2Cl)cc1; 2
2) COc1cc(/C=C2\CCc3ccccc3C2=O)cc(OC)c1OC; -44
3) COc1cc(CC2CC(c3ccc4c(c3)OCO4)OC2=O)cc(OC)c1OC (stereo unspecified); -1
4) CCCCCCCCCC/C=C\C(=O)O; -1
5) COc1cc(C2c3cc4c(cc3OC(Nc3ccccc3)C2C)OCO4)cc(OC)c1O (stereo unspecified); 4
6) COc1cc2c(c(OC)c1OC)-c1c(cc3c(c1OC)OCO3)CC(C)C(C)(O)C2OC(=O)c1ccccc1 (stereo unspecified); -5
7) CC(C)=CC(=O)O[C@@H]1CC(C)(C)CC2C3=CCC4[C@]56CC[C@](O)(OC5)C(C)(C)C6CC[C@@]4(C)C3(C)CC[C@]21C(=O)O (stereo partly specified); 44
8) CC(C)c1cc(C(C)C)c(O)c(C([O-])[O-])c1.CC(C)c1cc(C(C)C)c(O)c(C([O-])[O-])c1.CC(C)c1cc(C(C)C)c(O)c(C([OH2+])[OH2+])c1.CC(C)c1cc(C(C)C)c(O)c(C([OH2+])[OH2+])c1.[Cu+2].[Cu+2].[OH3+].[OH3+]; 29
9) O=C1C(Nc2ccccc2)=C(Oc2ccccc2)C(=O)c2ccccc21; 4
10) COc1ccc(N=C2C(=O)Nc3ccc(Br)cc32)cc1; -26
11) O=Nc1cccnc1N=O; 99
12) COc1ccc(/C=C2\SC(=S)N(/C=C/c3nc4ccccc4[nH]c3=O)C2=O)cc1OC; 26
13) COc1ccc(-c2cn(-c3ccc(I)cc3)c3ncnc(N)c23)cc1; -12
14) FC(F)(F)c1nc2nc(Cl)c(Cl)nc2n1CCCN1CCOCC1; 36
15) O=CNc1ccc2c(c1)C(=O)c1ccccc1-2; 14
16) Nc1ccc2c(c1)C(=O)c1cccc(N)c1C2=O; 29
17) CC[C@@]1(O)C(=O)OCc2c1cc1n(c2=O)Cc2cc3c(N)cccc3nc2-1; -25
18) Cc1c(Cl)ccc2c1S(=O)(=O)c1cccc(Cl)c1-2; 2
19) [N-]=[N+]=NC1=C(c2ccccn2)C(=O)c2cccc3cccc1c23; 11
20) CC1=C(SCCO)C(=O)c2ccccc2C1=O; 8
21) c1ccc2c(c1)sc1cc3ccncc3cc12; 16
